Every entry's value here was drawn from BigSolDB 2.1.

Conditions: in cyclopentanone, 283.95 K
assay.readout: solubility (mole fraction)
Please give the numeric answer without any surrounding text.

[in] Return reported solubility (mole fraction). Input compound: `Cc1ccccc1S(N)(=O)=O`
[out] 0.111

* * *

Conditions: in acetonitrile, 298.95 K
assay.readout: solubility (mole fraction)
// return a plain number; no unit text

[in] // fetch solubility (mole fraction) given entry `Cc1ccccc1S(N)(=O)=O`
[out] 0.0347

* * *

Conditions: in isobutanol, 323.15 K
assay.readout: solubility (mole fraction)

[in] Output solubility (mole fraction) of `Cc1ccccc1S(N)(=O)=O`
[out] 0.0215

* * *

Conditions: in acetonitrile, 323.85 K
assay.readout: solubility (mole fraction)
The reply should be a number, written without any unit.

[in] Specify measured solubility (mole fraction) for `Cc1ccccc1S(N)(=O)=O` .
[out] 0.0723

* * *

Settings: in ethyl acetate, 308.65 K
assay.readout: solubility (mole fraction)

[in] Let me know recorded solubility (mole fraction) for `Cc1ccccc1S(N)(=O)=O` , thanks.
[out] 0.0471

* * *

Details: in ethanol, 308.65 K
assay.readout: solubility (mole fraction)
Answer as a number with no unit attached.

[in] Retrieve solubility (mole fraction) measured for `Cc1ccccc1S(N)(=O)=O` and print it.
[out] 0.0275

* * *

Conditions: in ethyl acetate, 289.15 K
assay.readout: solubility (mole fraction)
Give a plain numeric answer without units written out.

[in] State, in one line, measured solubility (mole fraction) of `Cc1ccccc1S(N)(=O)=O`
[out] 0.0307

* * *

Settings: in acetonitrile, 293.35 K
assay.readout: solubility (mole fraction)

[in] Look up and report measured solubility (mole fraction) for this entry: `Cc1ccccc1S(N)(=O)=O`
[out] 0.0297

* * *

Conditions: in ethyl formate, 313.15 K
assay.readout: solubility (mole fraction)
I only need the number, thanks.

[in] Return the recorded solubility (mole fraction) value; entry: `Cc1ccccc1S(N)(=O)=O`
[out] 0.0354

* * *

Details: in acetone, 323.15 K
assay.readout: solubility (mole fraction)
Hey, just send me the number, nothing else.

[in] Name the recorded solubility (mole fraction) of the compound listed here: `Cc1ccccc1S(N)(=O)=O`
[out] 0.158

* * *

Conditions: in n-butanol, 279.15 K
assay.readout: solubility (mole fraction)
Please give only the number in your answer, with no unit.

[in] Give the reported value of solubility (mole fraction) for this record: `Cc1ccccc1S(N)(=O)=O`
[out] 0.00451

* * *

Conditions: in isopropanol, 308.65 K
assay.readout: solubility (mole fraction)
Lab note: record just the number, no unit beside it.

[in] Read the entry `Cc1ccccc1S(N)(=O)=O` and write its reported solubility (mole fraction).
[out] 0.0175

* * *

Settings: in n-propanol, 318.15 K
assay.readout: solubility (mole fraction)

[in] Specify reported solubility (mole fraction) for the molecule shown: `Cc1ccccc1S(N)(=O)=O`
[out] 0.0257

* * *

Conditions: in methanol, 313.15 K
assay.readout: solubility (mole fraction)
Output: the number by itself.

[in] Report measured solubility (mole fraction); entry is `Cc1ccccc1S(N)(=O)=O`
[out] 0.0489

* * *

Conditions: in ethyl formate, 273.15 K
assay.readout: solubility (mole fraction)

[in] Note down solubility (mole fraction) recorded for `Cc1ccccc1S(N)(=O)=O`
[out] 0.013

* * *

Conditions: in ethyl acetate, 323.15 K
assay.readout: solubility (mole fraction)
Field format: numeric only.

[in] For `Cc1ccccc1S(N)(=O)=O` , write its solubility (mole fraction).
[out] 0.0643
